# Assay Notes: compounds raising miR-122 luciferase sensor output – cell-based, single point, plate reader, miR-122 inhibitor project, primary screen (AID 602342);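 note: higher luciferase means less miR-122 activity so hits act as miR-122 inhibitors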
# Test Context: Huh7 miR-122 Renilla luciferase sensor, 48 h, neutral wells = 0; at 16.7 µM unless noted
The campaign covered roughly 340,000 compounds. About 1,000 (0.29%) were called active.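 Rule for the calls: active = mean replicate activation score at least 90 and every replicate individually at or above 90; inconclusive = only one of the two criteria met; inactive = neither criterion met.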 The sample holds actives, similar compounds and a random draw of the others, so the mix is not that of the screen.
// classify into active, inactive

- Molecular String: "COc1cccc(CN2[C@H](CO)[C@@H]3c4ccccc4N(C(=O)c4ccncc4)C[C@@H]32)c1"
  Assigned Category: "inactive"
- Molecular String: "CCC(=O)N1[C@H](CO)[C@@H]2c3ccccc3N(S(=O)(=O)c3ccccc3C)C[C@@H]21"
  Assigned Category: "inactive"
- Molecular String: "CN(C)CCCNC(=O)C[C@@H]1C=C[C@H](NC(=O)Cc2cccnc2)[C@H](CO)O1"
  Assigned Category: "inactive"
- Molecular String: "COc1cccc(-c2cnc3c(NC(C)=O)cc(-c4cc(F)ccc4OC)cn23)c1"
  Assigned Category: "inactive"
- Molecular String: "OC[C@@H]1[C@H](c2ccc(C#CC3CC3)cc2)[C@@H]2CN(CCC(F)(F)F)CCCCN12"
  Assigned Category: "inactive"

Ask: # lookup: test call for `Cc1noc(C)c1S(=O)(=O)N(C)C[C@@H]1OCCCC[C@H](C)Oc2ccc(NC(=O)Nc3ccc4c(c3)OCO4)cc2C(=O)N([C@H](C)CO)C[C@H]1C`
Reply: inactive

Ask: # lookup: test call for `CNC(=O)C[C@@H]1CC[C@@H]2[C@H](COC[C@H](O)CN2Cc2ccc(C(F)(F)F)cc2)O1`
Reply: inactive

====

# Assay Notes: compounds raising miR-122 luciferase sensor output – cell-based, single point, plate reader, miR-122 inhibitor project, primary screen (AID 602342);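 note: higher luciferase means less miR-122 activity so hits act as miR-122 inhibitors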
# Test Context: Huh7 miR-122 Renilla luciferase sensor, 48 h, neutral wells = 0; at 16.7 µM unless noted
The whole screen tested about 340,000 compounds, of which about 1,000 (0.29%) were called active.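 How the source made its calls: active means mean replicate activation score at least 90 and every replicate individually at or above 90; inconclusive means only one of the two criteria met; inactive means neither criterion met.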 The sample holds actives, similar compounds and a random draw of the others, so the mix is not that of the screen.
// classify into active, inactive

For orientation, consider the following solved cases.
- Compound: "C[C@@H]1CCCCO[C@H](CN(C)C(=O)NC2CCCCC2)[C@@H](C)CN([C@H](C)CO)C(=O)c2cc(NC(=O)CCC(F)(F)F)ccc2O1"
  Assigned Category: "inactive"
- Compound: "CC1CCCCC1NC(=O)COc1ccc(C#N)cc1 (configuration not stated)"
  Assigned Category: "inactive"
- Compound: "O=[N+]([O-])c1ccccc1/C=C/CN1CCCC(CO)C1 (configuration not stated)"
  Assigned Category: "inactive"
- Compound: "CCOc1ncccc1C(=O)NNC(=O)c1cccc(S(=O)(=O)Nc2ccccc2OC)c1"
  Assigned Category: "inactive"
- Compound: "O=C(c1ccccc1F)N1C[C@H]2[C@@H](c3ccccc31)[C@@H](CO)N2C(=O)c1ccc(F)cc1"
  Assigned Category: "active"

Ask: # lookup: test call for `CS(=O)(=O)N(CC(=O)Nc1ccc(Cl)c(Cl)c1)C1CCCCC1`
Reply: active

Ask: # lookup: test call for `CCN(C[C@@H]1[C@H](c2ccccc2)[C@@H](CO)N1CC1CC1)C(=O)c1ccccn1`
Reply: inactive

Ask: # lookup: test call for `COc1ccc(NC(=O)N(C)C[C@H]2OCCCC[C@@H](C)Oc3ccc(NC(=O)NC4CCCCC4)cc3C(=O)N([C@@H](C)CO)C[C@H]2C)cc1`
Reply: inactive

Ask: # lookup: test call for `CCOc1ccc(C(=O)Nc2cccc(-c3ccc4nncn4n3)c2)cc1`
Reply: inactive

Ask: # lookup: test call for `CC(=O)N1[C@H](CO)[C@H]2c3ccccc3N(C(=O)c3ccc(F)cc3)C[C@H]21`
Reply: inactive

Ask: # lookup: test call for `CCN(CC)S(=O)(=O)c1cc(C(=O)Nc2ccccn2)ccc1C`
Reply: inactive

Ask: # lookup: test call for `COc1cc(NS(=O)(=O)c2ccc3ccccc3c2)c2ncccc2c1`
Reply: active

Ask: # lookup: test call for `Cc1ccc(S(=O)(=O)Nc2ccc3ncccc3c2)cc1`
Reply: active

Ask: # lookup: test call for `COc1ccc(OCCCC(=O)NCCc2ccccc2)cc1`
Reply: active

Ask: # lookup: test call for `O=S(=O)(Nc1ccc(Oc2ncccn2)c(Cl)c1)c1ccc(F)cc1`
Reply: inactive

Ask: # lookup: test call for `COc1ccc(NC(=O)N(C)C[C@H]2Oc3ccc(NS(=O)(=O)c4ccc(C)cc4)cc3C(=O)N([C@@H](C)CO)C[C@H]2C)cc1`
Reply: inactive

Ask: # lookup: test call for `CC(C)CNS(=O)(=O)c1ccc(OCC(=O)Nc2ccc3c(c2)OCO3)c(Cl)c1`
Reply: active

====

# Assay Notes: compounds raising miR-122 luciferase sensor output – cell-based, single point, plate reader, miR-122 inhibitor project, primary screen (AID 602342);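 note: higher luciferase means less miR-122 activity so hits act as miR-122 inhibitors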
# Test Context: Huh7 miR-122 Renilla luciferase sensor, 48 h, hits give high values, neutral wells = 0, positive control = 100; at 16.7 µM unless noted
Out of some 340,000 compounds screened, about 1,000 (0.29%) were called active. The full list was thinned out, with actives kept by preference.
Measurement Type: activation (reporter increase) (%)
Value expressed in %; do not type the unit.

Worked cases, answers included:
- Molecular String: "CCCC(=O)Nc1ccc2c(c1)C(=O)N(C)[C@H]1CC[C@@H](CC(=O)NCc3cccc(F)c3)O[C@H]1CO2"
  activation (reporter increase) (%): 120
- Molecular String: "COCC(=O)Nc1ccc2c(c1)[C@@H]1C[C@H](CC(=O)NCc3cc(F)ccc3F)O[C@@H](CO)[C@@H]1O2"
  activation (reporter increase) (%): 12.6
- Molecular String: "O=C(Nc1ccccc1)[C@@H]1[C@@H](CO)[C@@H]2Cn3c(cccc3=O)[C@@H]2N1C(=O)C1CC1"
  activation (reporter increase) (%): -0.104
- Molecular String: "C[C@@H]1CN([C@@H](C)CO)C(=O)Cc2cc(NC(=O)Nc3ccc(F)cc3)ccc2O[C@@H]1CN(C)C"
  activation (reporter increase) (%): -1.94
- Molecular String: "COCC(=O)Nc1ccc2c(c1)C(=O)N(C)[C@@H]1CC[C@@H](CC(=O)NCc3cccc(F)c3)O[C@@H]1CO2"
  activation (reporter increase) (%): 41.7

Moving on to the next compound.
Ask: Fill in the blank: the reported activation (reporter increase) of `O=C(C[C@@H]1CC[C@@H]2[C@H](COC[C@@H](O)CN2Cc2ccc(F)cc2)O1)NCc1ccncn1` is ____.
Reply: 5.81
